- Target system: UniProtKB Q2KIM0
- Sequence (Q2KIM0 whole entry): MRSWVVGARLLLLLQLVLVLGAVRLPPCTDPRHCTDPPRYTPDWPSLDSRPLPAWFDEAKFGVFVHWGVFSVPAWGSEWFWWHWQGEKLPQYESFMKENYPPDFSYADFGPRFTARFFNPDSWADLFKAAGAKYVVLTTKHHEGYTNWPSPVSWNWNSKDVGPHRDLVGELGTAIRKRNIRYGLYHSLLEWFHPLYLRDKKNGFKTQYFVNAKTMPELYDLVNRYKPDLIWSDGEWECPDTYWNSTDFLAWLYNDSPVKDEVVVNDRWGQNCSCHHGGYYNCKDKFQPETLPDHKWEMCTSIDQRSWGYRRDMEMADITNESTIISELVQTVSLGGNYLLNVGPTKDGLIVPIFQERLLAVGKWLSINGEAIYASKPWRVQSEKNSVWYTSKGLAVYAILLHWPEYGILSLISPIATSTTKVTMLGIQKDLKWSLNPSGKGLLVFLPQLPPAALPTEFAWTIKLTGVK
Each record here notes measured pIC50.
Expect pIC50 as a plain number equal to -log10 of the molar concentration.

- Sample smiles: "CC[C@@H]1N[C@@H](CO)[C@@H](O)[C@H](O)[C@H]1O"
  pIC50: 4.14

Please examine the following record next.
State the recorded pIC50 for this entry: `CCC[C@@H]1N[C@@H](CO)[C@@H](O)[C@H](O)[C@H]1O`
3.15

* * *

Each record here notes measured inhibition.
- Target system: Glucosylceramidase (Bos taurus)
- Method description: Inhibition of bovine liver beta-glucosidase at 1000 uM
The reply should contain only the number, in %.

- Sample smiles: "CCC[C@@H]1NC[C@@H](O)[C@@H](O)[C@H](O)[C@H]1O"
  inhibition / %: 6
- Sample smiles: "CC[C@H]1N[C@@H](CO)[C@@H](O)[C@H](O)[C@H]1O"
  inhibition / %: 32.8
- Sample smiles: "CC[C@@H]1N[C@@H](CO)[C@@H](O)[C@H](O)[C@H]1O"
  inhibition / %: 12.6
- Sample smiles: "CCC[C@@H]1N[C@@H](CO)[C@@H](O)[C@H](O)[C@H]1O"
  inhibition / %: 13.2
- Sample smiles: "CC[C@H]1NC[C@@H](O)[C@@H](O)[C@H](O)[C@H]1O"
  inhibition / %: 24.6

Requested read-out inhibition, target or system Glucosylceramidase (Bos taurus), entry `CC[C@@H]1N[C@H](CC)[C@H](O)[C@@H](O)[C@@H]1O`
21.6

* * *

- Method description: Inhibition of Penicillium decumbens alpha-L-rhamnosidase
Endpoint: IC50 (µM)
The reply should contain only the number, in µM.

State the recorded IC50 for this entry: `CC[C@@H]1NC[C@@H](O)[C@@H](O)[C@H](O)[C@H]1O`
231

* * *

- Species: Rattus norvegicus
- Method description: Inhibition of rat intestinal maltase alpha-glucosidase at 1000 uM
Each record here notes measured inhibition.
Please answer using the number first and the unit second.

See these solved cases before continuing.
- Sample smiles: "CCC[C@@H]1NC[C@@H](O)[C@@H](O)[C@H](O)[C@H]1O"
  Reported value: "0%"
- Sample smiles: "CC[C@H]1N[C@@H](CO)[C@@H](O)[C@H](O)[C@H]1O"
  Reported value: "3.3%"
- Sample smiles: "CC[C@H]1NC[C@@H](O)[C@@H](O)[C@H](O)[C@H]1O"
  Reported value: "0%"

State the recorded inhibition for this entry: `CC[C@@H]1N[C@H](CC)[C@H](O)[C@@H](O)[C@@H]1O`
0%

State the recorded inhibition for this entry: `CCC[C@@H]1N[C@@H](CO)[C@@H](O)[C@H](O)[C@H]1O`
0%

State the recorded inhibition for this entry: `CC[C@@H]1NC[C@@H](O)[C@@H](O)[C@H](O)[C@H]1O`
13.7%

State the recorded inhibition for this entry: `CC[C@@H]1N[C@@H](CO)[C@@H](O)[C@H](O)[C@H]1O`
0%

* * *

Each record here notes measured inhibition.
- Target system: Tissue alpha-L-fucosidase (Bos taurus) (UniProt Q2KIM0)
- Method description: Inhibition of bovine kidney alpha-L-fucosidase at 1000 uM
The reply should contain only the number, in %.

See these solved cases before continuing.
- Sample smiles: "CC[C@@H]1NC[C@@H](O)[C@@H](O)[C@H](O)[C@H]1O"
  inhibition, %: 37.2
- Sample smiles: "CC[C@@H]1N[C@H](CC)[C@H](O)[C@@H](O)[C@@H]1O"
  inhibition, %: 0

State the recorded inhibition for this entry: `CC[C@H]1NC[C@@H](O)[C@@H](O)[C@H](O)[C@H]1O`
36.7

State the recorded inhibition for this entry: `CCC[C@@H]1NC[C@@H](O)[C@@H](O)[C@H](O)[C@H]1O`
0

* * *

- Test system: Escherichia coli
- Method description: Inhibition of Escherichia coli beta-glucuronidase at 1000 uM
Each record here notes measured inhibition.
The reply should contain only the number, in %.

See these solved cases before continuing.
- Sample smiles: "CC[C@H]1NC[C@@H](O)[C@@H](O)[C@H](O)[C@H]1O"
  Target system: "Escherichia coli"
  inhibition, %: 3.1
- Sample smiles: "CC[C@H]1N[C@@H](CO)[C@@H](O)[C@H](O)[C@H]1O"
  Target system: "Escherichia coli"
  inhibition, %: 11
- Sample smiles: "CC[C@@H]1NC[C@@H](O)[C@@H](O)[C@H](O)[C@H]1O"
  Target system: "Escherichia coli"
  inhibition, %: 18.1
- Sample smiles: "CC[C@@H]1N[C@H](CC)[C@H](O)[C@@H](O)[C@@H]1O"
  Target system: "Escherichia coli"
  inhibition, %: 12.9

State the recorded inhibition for this entry: `CC[C@@H]1N[C@@H](CO)[C@@H](O)[C@H](O)[C@H]1O`
7.2

* * *

Each record here notes measured inhibition.
- Target system: Alpha-galactosidase (Coffea arabica)
- Method description: Inhibition of coffee bean alpha-galactosidase at 1000 uM
The reply should contain only the number, in %.

See these solved cases before continuing.
- Sample smiles: "CC[C@@H]1N[C@H](CC)[C@H](O)[C@@H](O)[C@@H]1O"
  Scale unit: "%"
  inhibition: 3.7
- Sample smiles: "CC[C@@H]1NC[C@@H](O)[C@@H](O)[C@H](O)[C@H]1O"
  Scale unit: "%"
  inhibition: 7.5
- Sample smiles: "CCC[C@@H]1N[C@@H](CO)[C@@H](O)[C@H](O)[C@H]1O"
  Scale unit: "%"
  inhibition: 10.4

Please examine the following record next.
State the recorded inhibition for this entry: `CC[C@@H]1N[C@@H](CO)[C@@H](O)[C@H](O)[C@H]1O`
0.6

* * *

- Target system: Uncharacterized protein (Sus scrofa)
- Method description: Inhibition of pig kidney alpha, alpha trehalase at 1000 uM
Each record here notes measured inhibition.
The reply should contain only the number, in %.

- Sample smiles: "CC[C@H]1N[C@@H](CO)[C@@H](O)[C@H](O)[C@H]1O"
  Endpoint: "inhibition"
  Scale unit: "%"
  Reported value: 0

State the recorded inhibition for this entry: `CC[C@@H]1N[C@H](CC)[C@H](O)[C@@H](O)[C@@H]1O`
4.9

State the recorded inhibition for this entry: `CCC[C@@H]1NC[C@@H](O)[C@@H](O)[C@H](O)[C@H]1O`
0

State the recorded inhibition for this entry: `CC[C@@H]1NC[C@@H](O)[C@@H](O)[C@H](O)[C@H]1O`
0

State the recorded inhibition for this entry: `CC[C@H]1NC[C@@H](O)[C@@H](O)[C@H](O)[C@H]1O`
3.9

State the recorded inhibition for this entry: `CCC[C@@H]1N[C@@H](CO)[C@@H](O)[C@H](O)[C@H]1O`
0

State the recorded inhibition for this entry: `CC[C@@H]1N[C@@H](CO)[C@@H](O)[C@H](O)[C@H]1O`
6

* * *

- Target system: Tissue alpha-L-fucosidase (Bos taurus)
Endpoint: Ki (µM)
The reply should contain only the number, in µM.

State the recorded Ki for this entry: `O[C@H]1[C@H](O)[C@@H](O)CNC[C@H]1O`
4.6

* * *

- Tested on: Canavalia ensiformis
- Method description: Inhibition of jack beans alpha-mannosidase at 1000 uM
Each record here notes measured inhibition.
The reply should contain only the number, in %.

- Sample smiles: "CCC[C@@H]1NC[C@@H](O)[C@@H](O)[C@H](O)[C@H]1O"
  Endpoint: "inhibition"
  Reported value: 1.6
- Sample smiles: "CC[C@@H]1N[C@@H](CO)[C@@H](O)[C@H](O)[C@H]1O"
  Endpoint: "inhibition"
  Reported value: 0
- Sample smiles: "CCC[C@@H]1N[C@@H](CO)[C@@H](O)[C@H](O)[C@H]1O"
  Endpoint: "inhibition"
  Reported value: 5.1
- Sample smiles: "CC[C@H]1N[C@@H](CO)[C@@H](O)[C@H](O)[C@H]1O"
  Endpoint: "inhibition"
  Reported value: 5.1
- Sample smiles: "CC[C@@H]1N[C@H](CC)[C@H](O)[C@@H](O)[C@@H]1O"
  Endpoint: "inhibition"
  Reported value: 0.4
- Sample smiles: "CC[C@@H]1NC[C@@H](O)[C@@H](O)[C@H](O)[C@H]1O"
  Endpoint: "inhibition"
  Reported value: 11

Please examine the following record next.
State the recorded inhibition for this entry: `CC[C@H]1NC[C@@H](O)[C@@H](O)[C@H](O)[C@H]1O`
0

Numbers sourced from ChEMBL document CHEMBL2406948.
